System: Rat Aorta
Assay: Test with Excised Aorta of Rat: relaxation of lasting KCl-induced contraction
Set-up: species or system male Sprague Dawley rat
Conditions: rat thoracic aorta rings, 30 mM KCl contraction, Krebs-Henseleit, 37° C., tension 2 g; read-out: IC50 (50% inhibitory concentration, relaxation of lasting contraction following KCl addition), Rat Aorta
test.readout: pIC50
// pIC50 here means minus log10 of the molar concentration (mol/L)

Example entries begin here.
molecule	test.readout	numeric.value
CN=C(NC#N)C1=CC(CF)(CF)Oc2ccc([N+](=O)[O-])cc21 [Example 9]	pIC50	7.85
CNC(=S)C1=CC(C)(COC)Oc2ccc([N+](=O)[O-])cc21 (stereo not drawn) [Example 2]	pIC50	7.77

Please find the next molecule below.
Challenge: Please look up its pIC50: CNC(=O)C1=CC(CF)(CF)Oc2ccc([N+](=O)[O-])cc21 [Example 7]
Response given: 8.22
